Sourced from the supplement of paper PMC7156485

- Tested on: TDF;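 note: TDF is a line of transformed human dermal fibroblasts of mesenchymal origin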
- procedure details: H1.0 immunofluorescence intensity relative to DMSO (% of DMSO); higher = stronger H1.0 induction, active = 120 or more
- run parameters: concentration: 10 µM; 24 h
attribute measured: H1.0 immunofluorescence intensity
Give bare numbers.

Task: Which H1.0 immunofluorescence intensity reading was recorded for the compound CCN(CC)CCNC(=O)c1ccc(NC(C)=O)cc1.Cl [N-Acetylprocainamide hydrochloride] ?
Output: 105

Task: # input compound: CC(N)=NCCCC[C@H](N)C(=O)O.Cl [L-N6-(1-Iminoethyl)lysine hydrochloride] ; wanted: its H1.0 immunofluorescence intensity
Output: 84.8

Task: What does the record list as H1.0 immunofluorescence intensity for CCCCNc1cc(C(=O)O)cc(S(N)(=O)=O)c1Oc1ccccc1 [Bumetanide] ?
Output: 96.4

Task: Which value of H1.0 immunofluorescence intensity has been reported for NC(=O)N1c2ccccc2C=Cc2ccccc21 [Carbamazepine] in the records?
Output: 92.6

Hey, quick one: what's H1.0 immunofluorescence intensity for each of these?
1. OCC1OC(OC2OC=CC3C(O)C4OC4(CO)C23)C(O)C(O)C1O (configuration not stated) [Catalpol]
2. CCCS(=O)c1ccc2nc(NC(=O)OC)[nH]c2c1 (configuration not stated) [Ricobendazole]
3. CC(=O)OCC(=O)[C@@]1(O)CC[C@H]2[C@@H]3CCC4=CC(=O)CC[C@]4(C)[C@@]3(F)[C@@H](O)C[C@@]21C
4. CC#CC(=O)Nc1cc2c(Nc3ccc(F)c(Cl)c3)ncnc2cn1 [EGFR/ErbB-2/ErbB-4 Inhibitor]
5. O=C1c2cccc(O)c2C(=O)c2c(O)cc(CO)cc21 [Aloe-emodine]

Output:
1. 96.6
2. 114
3. 80
4. 104
5. 97.3

For each listed entry, give its H1.0 immunofluorescence intensity.
1. O=C(O)c1cc(N(Cc2ccccc2O)Cc2cc(O)ccc2O)ccc1O [Lavendustin A]
2. C[N+](C)(C)CC(O)CC(=O)[O-].Cl (racemic)
3. O=C1c2ccccc2-c2n[nH]c3cccc1c23

Output:
108
97.1
92

Required: H1.0 immunofluorescence intensity, one value per compound below.
1. CCN(CC)CCOC(=O)c1cc(Cl)c(N)cc1OC.Cl [SDZ-205,557 hydrochloride]
2. Cc1cccc2c3c(ccc12)C1=C(C(=O)C3=O)C(C)CO1 (configuration not stated) [Dihydrotanshinone]
3. CC(=O)OC1C(=O)C2(C)C(O)CC3OCC3(OC(C)=O)C2C(OC(=O)c2ccccc2)C2(O)CC(OC(=O)C(O)C(NC(=O)c3ccccc3)c3ccccc3)C(C)=C1C2(C)C (configuration not stated) [Taxol]

Output:
1: 85.4; 2: 111; 3: 174

Provide each entry's H1.0 immunofluorescence intensity from the list below.
1. CCCCCCCCCCCCCCCCOCC(COP(=O)([O-])OCC[N+](C)(C)C)OC (configuration not stated) [1-Hexadecyl-2-methylglycero-3 PC]
2. CC(C)(C)n1nc(Cc2cccc3ccccc23)c2c(N)ncnc21 [PP1 Analog II, 1NM-PP1]

Output:
104
93.1
